- Test system: NCI-H460
- protocol.details: NCI tumour cell line growth inhibition, 48 h
Active and inactive are the calls of the source. Rule as the data show it: active = GI50 up to about 1.1 µM and inactive = higher.
measurement.kind: GI50

{"compound": "COc1cc(/C=C2\\CCc3ccccc3C2=O)cc(OC)c1OC", "measurement.kind": "GI50", "endpoint.result": "16.9 µM (inactive)"}
{"compound": "O=C1NC(=O)C(COCc2ccccc2)C2=C1SCCC2 (centres undefined)", "measurement.kind": "GI50", "endpoint.result": "> 100 µM (inactive)"}
{"compound": "COc1ccc(N2C(=O)/C(=C/c3ccc(N(CCC#N)CCC#N)cc3C)N=C2c2cc([N+](=O)[O-])ccc2Cl)cc1", "measurement.kind": "GI50", "endpoint.result": "4.5 µM (inactive)"}
{"compound": "CC(=O)N/N=C1/CC[C@@]2(C)C(=CC[C@H]3C4CCC(C(C)CCCC(C)C)[C@@]4(C)CCC32)C1(C)C (some centres undefined)", "measurement.kind": "GI50", "endpoint.result": "32.1 µM (inactive)"}
{"compound": "CCOC(=O)CNC(SC)=C(C#N)C#N", "measurement.kind": "GI50", "endpoint.result": "> 100 µM (inactive)"}
{"compound": "COC(=O)c1scc(N)c1-n1ccc(=O)[nH]c1=O", "measurement.kind": "GI50", "endpoint.result": "> 100 µM (inactive)"}
{"compound": "O=C(O)[C@@H]1CSCN1C(=O)[C@@H]1CCC(=S)N1", "measurement.kind": "GI50", "endpoint.result": "> 100 µM (inactive)"}
{"compound": "C/C(CC(=O)Nc1cc(C)ccc1C)=N/N=C(N)N", "measurement.kind": "GI50", "endpoint.result": "> 100 µM (inactive)"}
{"compound": "COc1ccccc1/C=C/C1=NN(c2cccc(S(=O)(=O)O)c2)C2(C1)C(Cl)C(=O)N2c1nc2ccccc2s1 (centres undefined)", "measurement.kind": "GI50", "endpoint.result": "37.8 µM (inactive)"}

* * *

- System: COLO 205
- protocol.details: NCI tumour cell line growth inhibition, 48 h
Activity calls are given as the source filed them. Rule as the data show it: active = GI50 up to about 1.1 µM and inactive = higher.
GI50 reference

{"compound": "O=C(CCCCCNC(=O)c1ccc(Cl)cc1)NO", "assay.target": "COLO 205", "GI50": "2.99 µM (inactive)"}
{"compound": "CC(Nc1cc(=O)n(C)c(=O)[nH]1)c1ccccc1 (stereo not drawn)", "assay.target": "COLO 205", "GI50": "> 100 µM (inactive)"}
{"compound": "c1ccc(CSC2(SCc3ccccc3)CCCC2)cc1", "assay.target": "COLO 205", "GI50": "> 10 µM (inactive)"}

* * *

- System: HCT-15
measurement.kind: GI50

{"molecule": "CNC1c2ccccc2C(=O)c2cc3c(cc21)OCCOCCOCCOCCO3 (stereo not drawn)", "endpoint.result": "39.9 µM"}
{"molecule": "O=C(CCc1nnc2s/c(=C\\c3ccc(Cl)cc3Cl)c(=O)n12)Nc1cc(Cl)c(Cl)cc1Cl", "endpoint.result": "> 10 µM"}
{"molecule": "CN1C(=O)c2cccc3cc([N+](=O)[O-])cc(c23)C1=O", "endpoint.result": "> 10 µM"}

* * *

GI50 reference
- Tested on: HCT-15
measurement.kind: GI50

{"compound": "Nc1nc(Cl)cc(Oc2ccc(Cl)cc2)n1", "measurement.kind": "GI50", "endpoint.result": "> 57.4 µM"}
{"compound": "COC(=O)C(Cc1c[nH]c2ccccc12)NP(=O)(O)OCC1OC(n2ccc(N)nc2=O)C(O)C1O (centres undefined)", "measurement.kind": "GI50", "endpoint.result": "> 100 µM"}
{"compound": "CCCCCC/C=C\\CCCCCCCCCc1cccc(OC)c1O", "measurement.kind": "GI50", "endpoint.result": "> 100 µM"}
{"compound": "C=CCn1c(=S)sc2c(C(=O)OCC)c3c(C)cc(C)cn3c2c1=O", "measurement.kind": "GI50", "endpoint.result": "> 100 µM"}
